Test: Jurkat reporter gene cellular assay
Type: cell-based
Details: Homo sapiens; Jurkat/NF-κB-luc/PD1 + Raji-PD-L1 coculture, OKT3 1 μg/mL, 6 hrs, activation fold; read-out: Cell Activity EC50
pEC50: −log10 of the molar value.
Answer label 0 if pEC50 is under 7, and label 1 if it is 7 or more.

stdin: For this compound, is measured pEC50 7 or higher? COc1cc(/C(F)=C/c2cccc(-c3cccc(NC(=O)c4nc5c(n4C)CCN(CCC46CCC(C(=O)O)(CC4)C6)C5)c3Cl)c2Cl)ncc1CN1CC[C@H](O)C1
stdout: label 1

stdin: What do we get for Cc1c(/C=C(\F)c2cc(C3CC3)c(CN3CCCC[C@H]3C(=O)O)cn2)cccc1-c1cccc(NC(=O)c2nc3c(n2C)CCN(C[C@@H](C)O)C3)c1C ?
stdout: label 0

stdin: Entry Cn1c(C(=O)Nc2cccc(-c3cccc(/C=C(\F)c4cc(C5CC5)c(CN5CC(C)(O)C5)cn4)c3Cl)c2Cl)nc2c1CCN(CCC13CCC(C(=O)O)(CC1)C3)C2 please
stdout: label 0

---

Assay: Pharmacokinetic assay in mice
Assay type: in vivo
Conditions: male, mouse; ICR mice, PO 10 mg/kg, plasma, original compound detected
measurement-type: AUC(0-t)

stdin: # input compound: Cc1c(/C=C(\F)c2nc3c(n2C)CCN(C(C)C)C3)cccc1-c1cccc(NC(=O)c2nc3c(n2C)CCN(CCC24CCC(C(=O)O)(CC2)C4)C3)c1C ; wanted: its AUC(0-t)
stdout: 2490 ng·h/mL

stdin: Repeat for the following compound: COc1cc(/C(F)=C/c2cccc(-c3cccc(NC(=O)c4nc5c(n4C)CCN(CCC46CCC(C(=O)O)(CC4)C6)C5)c3Cl)c2Cl)ncc1CN1CC[C@@](C)(C(=O)O)C1
stdout: 2650 ng·h/mL

stdin: Same read-out for COc1cc(/C(F)=C/c2cccc(-c3cccc(NC(=O)c4nc5c(n4C)CCN(CCC46CCC(C(=O)O)(CC4)C6)C5)c3Cl)c2Cl)ncc1CN1CCCC1 ?
stdout: 1950 ng·h/mL

stdin: Also, COc1cc(/C(F)=C/c2cccc(-c3cccc(NC(=O)c4nc5c(n4C)CCN(CCC46CCC(C(=O)O)(CC4)C6)C5)c3Cl)c2Cl)ncc1CN1CCC(C)(O)C1 (centres unmarked) please.
stdout: 15100 ng·h/mL

stdin: Try this compound too: COc1cc(/C(F)=C/c2cccc(-c3cccc(NC(=O)c4nc5c(n4C)CCN(CCC46CCC(C(=O)O)(CC4)C6)C5)c3Cl)c2Cl)ncc1CN1CC[C@@H](C(=O)O)C1
stdout: 590 ng·h/mL

---

Assay: Jurkat reporter gene cellular assay
Type: cell-based
Settings: Homo sapiens; Jurkat/NF-κB-luc/PD1 + Raji-PD-L1 coculture, OKT3 1 μg/mL, 6 hrs, activation fold; read-out: Cell Activity EC50
EC50 less than 0.1 µM is T; EC50 greater than or equal to 0.1 µM is F.

stdin: Lab log: compare recorded EC50 with 0.1 µM; is it strictly lower for COc1cc(/C(F)=C/c2cccc(-c3cccc(NC(=O)c4nc5c(n4C)CCN(CCC46CCC(C(=O)O)(CC4)C6)C5)c3Cl)c2Cl)ncc1CN1CC[C@H](C)C1 ?
stdout: T

stdin: Same question, COc1cc(/C(F)=C/c2cccc(-c3cccc(NC(=O)c4nc5c(n4C)CCN(CCC46CCC(C(=O)O)(CC4)C6)C5)c3Cl)c2Cl)ncc1CN1CCCC1(C)C this time
stdout: T

stdin: Further, for COc1cc(/C(F)=C/c2cccc(-c3cccc(NC(=O)c4nc5c(n4C)CCN(CCC46CCC(C(=O)O)(CC4)C6)C5)c3Cl)c2Cl)ncc1CN1CCO[C@H](CO)C1 ?
stdout: F

stdin: Now give it for COc1cc(/C(F)=C/c2cccc(-c3cccc(NC(=O)c4nc5c(n4C)CCN(CCC46CCC(C(=O)O)(CC4)C6)C5)c3Cl)c2Cl)ncc1CN1CC[C@@H](F)C1 too.
stdout: F

stdin: Same again, this time with COc1cc(/C(F)=C/c2cccc(-c3cccc(NC(=O)c4nc5c(n4C)CCN(CCC46CCC(C(=O)O)(CC4)C6)C5)c3Cl)c2Cl)ncc1CN1CC[C@](C)(O)C1
stdout: F

stdin: Same read-out for COc1cc(/C(F)=C/c2cccc(-c3cccc(NC(=O)c4nc5c(n4C)CCN(CCC46CCC(C(=O)O)(CC4)C6)C5)c3Cl)c2Cl)ncc1CN1Cc2cccnc2C1 ?
stdout: F

stdin: What about this compound? Cc1c(/C=C(\F)c2nc3c(n2C)CCN(C(C)C)C3)cccc1-c1cccc(NC(=O)c2nc3c(n2C)CCN(CC24CCC(C(=O)O)(CC2)C4)C3)c1C
stdout: F

stdin: And for Cc1c(/C=C(\F)c2nc3c(n2C)CCN(C(C)C)C3)cccc1-c1cccc(NC(=O)c2nc3c(n2C)CCN(CCC24CCC(C(=O)O)(CC2)C4)C3)c1C ?
stdout: F

stdin: Another: COc1cc(/C(F)=C/c2cccc(-c3cccc(NC(=O)c4nc5c(n4C)CCN(CCC46CCC(C(=O)O)(CC4)C6)C5)c3Cl)c2Cl)ncc1CNCC(C)(C)O
stdout: F

stdin: One more compound: Cc1c(/C=C(\F)c2nc3c(n2C)CCN(C[C@@H](C)O)C3)cccc1-c1cccc(NC(=O)c2nc3c(n2C)CCN(CCC24CCC(C(=O)O)(CC2)C4)C3)c1C
stdout: T

stdin: And the next one, COc1cc(/C(F)=C/c2cccc(-c3cccc(NC(=O)c4nc5c(n4C)CCN(CCC46CCC(C(=O)O)(CC4)C6)C5)c3Cl)c2Cl)ncc1CN(C)CCN(C)C ?
stdout: F
